Data origin, for the record: ChEMBL document CHEMBL1201862

# System: TK-10
# Assay Name: NCI tumour cell line growth inhibition, 48 h
The source made the active and inactive calls. Rule as the data show it: active = GI50 up to about 1.1 µM and inactive = higher.
Would you mind telling me the reported GI50 of each entry?

GET /values?readout=GI50&system=TK-10&item= CC(Sc1ccccc1)C(CO)(CO)[N+](=O)[O-] (stereo unspecified) 18.9 µM (inactive)

GET /values?readout=GI50&system=TK-10&item= CC1(C)C(c2ccccc2)C12CCC1(C2=O)C(c2ccccc2)C1(C)C (stereo unspecified) 34.5 µM (inactive)

GET /values?readout=GI50&system=TK-10&item= "O=C(N/C(=C\c1ccccc1[N+](=O)[O-])c1nc2ccccc2[nH]1)c1ccccc1" > 100 µM (inactive)

GET /values?readout=GI50&system=TK-10&item= CSC1NNC2(C(=O)N1)c1ccccc1-c1ccccc12 (stereo unspecified) > 10 µM (inactive)

GET /values?readout=GI50&system=TK-10&item= "Cc1nc(Cl)c(C)c(Cl)n1" > 100 µM (inactive)

GET /values?readout=GI50&system=TK-10&item= "CCOc1ccc(N/C(Cl)=C(Cl)\C(=C(\Nc2ccc(OCC)cc2)n2nnc3ccccc32)[N+](=O)[O-])cc1" 4.49 µM (inactive)

###

# System: SNB-19
# Assay Name: NCI tumour cell line growth inhibition, 48 h
The source made the active and inactive calls. Rule as the data show it: active = GI50 up to about 1.1 µM and inactive = higher.
Valid outcomes are listed here; reply with one: true (active), false (inactive)

Which outcome was assigned to CC(=O)C1CC=C(C)CC1 (stereo unspecified) in this test? false

Which outcome was assigned to COC1C(CO)OC(n2c3c(Cl)cccc3c3c4c(c5c6cccc(Cl)c6[nH]c5c32)C(=O)NC4=O)C(O)C1O (stereo unspecified) in this test? true

Which outcome was assigned to "C=C1C(=O)O[C@@H]2[C@H]1CCC(C)=C1C=CC(=O)[C@]12C" in this test? false

Which outcome was assigned to "c1ccc(CCN2CCCCCC2)nc1" in this test? false

Which outcome was assigned to "O=C(O)COc1ccc(C(=O)/C(SS/C(C(=O)c2ccc(OCC(=O)O)c(Cl)c2Cl)=C2\C=C(c3ccc(Cl)cc3)SS2)=C2/C=C(c3ccc(Cl)cc3)SS2)c(Cl)c1Cl" in this test? false

Which outcome was assigned to "c1ccc(C2(c3cc4ccccc4[nH]3)OCCO2)nc1" in this test? false

Which outcome was assigned to CCOC(=O)N1N=C(/C(C)=N/OC)C(C)[S+]1[O-] (stereo unspecified) in this test? false

Which outcome was assigned to O=C1NC(O)CCN1C1CC(O)C(CO)O1 (stereo unspecified) in this test? false

Which outcome was assigned to "CN(C(=O)CCC(=O)O)c1ccccc1C(=O)O" in this test? false

Which outcome was assigned to "Cc1nc(Cl)c(C)c(Cl)n1" in this test? false

Which outcome was assigned to O=C1C=CC(CC(=O)c2ccc3ccccc3c2)O1 (stereo unspecified) in this test? false

###

# Test system: T47D
# Assay Name: NCI tumour cell line growth inhibition, 48 h
Active and inactive are the calls of the source. No stated cut-off is given here; in the data, active = GI50 up to about 1.1 µM and inactive = higher. Peptide text beside a SMILES is read from it. * marks the point of attachment. Boc = CC(C)(C)OC(=O)*; OtBu = CC(C)(C)O*
Valid outcomes are listed here; reply with one: active, inactive

Which outcome was assigned to "CC(C)NC(=O)OCc1c(COC(=O)NC(C)C)c(-c2ccc(Cl)c(Cl)c2)n2c1CCC2" in this test? inactive

Which outcome was assigned to "COC(=O)c1ccc(NC(=O)c2cc3c(cc2Br)OCO3)o1" in this test? inactive

Which outcome was assigned to "CCOC(=O)CCN1C(=O)c2c(NC(=O)C(=O)O)cccc2S1(=O)=O" in this test? inactive

Which outcome was assigned to "c1ccc2c(c1)nc1n2CCNC1" in this test? inactive

Which outcome was assigned to "O=C1CN(/N=C/c2ccc(-c3ccc(F)cc3)o2)C(=O)N1" in this test? inactive

Which outcome was assigned to "COC(=O)c1ccc(O)c2nc3c(C=O)c(O)cc(O)c3nc12" in this test? active

Which outcome was assigned to "Oc1cc(-c2ccc3ccccc3c2)nc2ncc(Cl)cc12" in this test? inactive

Which outcome was assigned to "CC1(C)CCC[C@](C)([C@H]2CC[C@]3(C)[C@@H]2[C@H](O)C[C@@H]2[C@@]4(C)CC[C@H](O)C(C)(C)[C@@H]4[C@H](O)C[C@]23C)O1" in this test? inactive

Which outcome was assigned to "O=[N+]([O-])C(=C(N1CCCCC1)N1CCCCC1)/C(Cl)=C(\Cl)[N+](=O)[O-]" in this test? inactive

Which outcome was assigned to "C/C(=N\NC(=O)Nc1ccccc1Cl)c1ccc(O)cc1" in this test? inactive

Which outcome was assigned to "CC1=Nc2c(N)nc(N)nc2N(C)C1" in this test? inactive

Which outcome was assigned to "CCN1c2ccccc2-n2c(C)nnc2-c2c(-c3ccccc3)n[nH]c21" in this test? inactive

Which outcome was assigned to CC(C)(C)OC(=O)CC(NC(=O)OC(C)(C)C)C(=O)NC(Cc1ccccc1)C(N)=O (stereo unspecified) (Boc-Asp(OtBu)-Phe-NH2; configuration not given here) in this test? inactive

Which outcome was assigned to "N#Cc1c(N2CCCC2)ncn(Cc2ccccc2)c1=S" in this test? inactive

Which outcome was assigned to Cc1c(C)c2ccc(OCC(O)COC(C)C)c(C)c2oc1=O (stereo unspecified) in this test? inactive

Which outcome was assigned to "COc1cc(OC)cc(OCc2nc3cc(C(F)(F)F)ccc3nc2-c2ccccc2)c1" in this test? inactive

Which outcome was assigned to "N=C(N)SCc1ccc(N=C=S)cc1" in this test? inactive

Which outcome was assigned to CC1(C)CN(c2ccccc2)C(=O)C1OC(=O)[C@@]1(C)C[C@@H]2C=C[C@H]1C2 (stereo partly specified) in this test? inactive

Which outcome was assigned to "CC(C)N(C(=O)c1ccc(NCc2cc(O)ccc2O)cc1)C(C)C" in this test? inactive

Which outcome was assigned to "CCc1ccc(CCC(=O)O)nc1" in this test? inactive

Which outcome was assigned to "c1ccc(CCN2CCc3[nH]c4ccccc4c3C2)cc1" in this test? inactive

Which outcome was assigned to CC1(c2nc3cc(Cl)c(Cl)cc3[nH]2)CCC(C(=O)O)C(C)(C)O1 (stereo unspecified) in this test? inactive

Which outcome was assigned to "C=C(C)CNC(=S)N(N)c1ccc2ccccc2c1" in this test? inactive

Which outcome was assigned to "Cc1cccnc1N/C=C1\C(=O)NC(=O)N(C)C1=O" in this test? inactive

Which outcome was assigned to "COC(=O)[C@H]1[C@@H](C(C)C)O[C@@H](C(C)C)O[C@H]1C(F)(F)F" in this test? inactive

Which outcome was assigned to COc1ccccc1/C=C1\CCC(Cc2ccccc2)(CN(C)C)C1=O (stereo unspecified) in this test? inactive

Which outcome was assigned to OCC1CCCC1O (stereo unspecified) in this test? inactive

Which outcome was assigned to "Cc1occc1C(=S)Nc1ccc(Cl)c(/C=N/OC(C)(C)C)c1" in this test? inactive

Which outcome was assigned to "O=C1/C(=C/c2cccc3ccccc23)CCc2ccc([N+](=O)[O-])cc21" in this test? inactive

Which outcome was assigned to CN(C)CCOC1(CC2CCCCC2)CCC(C(C)(C)C)CC1 (stereo unspecified) in this test? inactive

Which outcome was assigned to N=C1OC(c2cccc(Cl)c2)C(NNS(=O)(=O)c2ccccc2)=C1O (stereo unspecified) in this test? inactive

Which outcome was assigned to CC(C)C1OC(=O)C(Cc2ccccc2)N(C)C(=O)C(C(C)C)OC(=O)C(Cc2ccccc2)N(C)C(=O)C(C(C)C)OC(=O)C(Cc2ccccc2)N(C)C1=O (stereo unspecified) in this test? active

Which outcome was assigned to "O=C(O)c1cc2ccccc2c(/N=N/c2ccc(S(=O)(=O)O)cc2)c1O" in this test? inactive

Which outcome was assigned to "O=C1C(c2c(O)[nH]c3ccc(Cl)cc23)=Nc2ccccc21" in this test? inactive

Which outcome was assigned to "N=C(CSSCC(=N)NCC12CC3CC(CC(C3)C1)C2)NCC12CC3CC(CC(C3)C1)C2" in this test? inactive

Which outcome was assigned to "O=[N+]([O-])c1ccc(NN=C2CN3CCN(C2)c2ccccc23)c([N+](=O)[O-])c1" in this test? inactive

Which outcome was assigned to O=C1/C(=C\c2cccc(Oc3ccccc3)c2)S(=O)(=O)C(c2ccccc2)N1c1ccccc1Cl (stereo unspecified) in this test? inactive

Which outcome was assigned to "CCNc1nnc(-c2ccccc2Nc2ccccc2-c2nnc(NCC)s2)s1" in this test? inactive

Which outcome was assigned to O=c1c2cc(O)c(O)cc2oc2cc(O)c(C3OC(CO)C(O)C(O)C3O)c(O)c12 (stereo unspecified) in this test? inactive

Which outcome was assigned to "N#Cc1c(C#N)c(SSc2c(C#N)c(C#N)c(N)n2-c2cccc3ccccc23)n(-c2cccc3ccccc23)c1N" in this test? inactive

Which outcome was assigned to CC(=O)c1c(-c2ccco2)c(C#N)c(=S)n(C2OC(CO)C(O)C(O)C2O)c1-c1ccccc1 (stereo unspecified) in this test? inactive
